Where do these numbers come from? They come from PubChem BioAssay (Tox21).

assay: qHTS RealTime-Glo MT Cell Viability Assay in HEK293 cells - 16 hour (AID 1224872); settings: RealTime-Glo luminescence; series mostly up to 76.8 µM; further: nearly all actives have a fitted effect of over 50% in size
Inconclusive results are not listed. Activity calls are given as the source filed them. The call rests on the fitted dose curve; in most records, active means well fitted cell-killing curve with a large enough effect in the repeat runs; inconclusive means weak or mixed curves, or effect the other way; inactive means flat fitted curve, though single readings scatter.
Thanks in advance; please answer with one of these: active, inactive

{"columns": ["compound", "assigned_class"],
 "data": [
  ["O=C(O)C(Cc1cc(I)c(O)c(I)c1)c1ccccc1 (centres undefined)", "inactive"],
  ["CC1(C)C(=O)N(Br)C(=O)N1Cl", "inactive"]
]}

Input line: Recorded call for COC(=O)[C@@H]1CC2=CC(=O)CC[C@]2(C)[C@@]23O[C@@H]2C[C@@]2(C)[C@@H](CC[C@@]24CCC(=O)O4)[C@H]13 ?
Output line: inactive

Input line: GET /call?item= CC(C)(O)c1ccccc1CC[C@@H](SCC1(CC(=O)O)CC1)c1cccc(/C=C/c2ccc3ccc(Cl)cc3n2)c1 returns the recorded outcome of this test.
Output line: inactive

Input line: // outcome(item) with item = COCC(O)CO (centres undefined)
Output line: inactive

Input line: Short answer needed: outcome of this test for CCCCCCCC/C=C\CCCCCCCC(=O)OC ?
Output line: inactive

Input line: Kindly provide the recorded test outcome for the following compound: O=Cc1c(Cl)cccc1Cl
Output line: inactive

Input line: How was Cc1ccccc1N1C(=O)c2cc(S(N)(=O)=O)c(Cl)cc2NC1C (centres undefined) classified in this test?
Output line: inactive

Input line: # lookup: test call for C=CC(C)(C)CC(=O)OC
Output line: active

###

Experiment: qHTS assay for small molecule agonists of the antioxidant response element (ARE) signaling pathway (AID 743202)
Conditions: HepG2 ARE-bla reporter, beta-lactamase FRET, 16 h; series mostly up to 73.3 µM
Excerpt: U.S. Tox21 Program National Center for Advancing Translational Sciences [NCATS] NIH Chemical Genomics Center [NCGC] U.S. Environmental Protection Agency [EPA] National Institutes of Environmental Health Sciences [NIEHS] National Toxicology Program [NTP] U.S. Food and Drug Administration [FDA] […] The activation of the report gene under culture conditions can be detected by fluorescence intensity. […]
Results filed as inconclusive are left out. Active and inactive are the calls of the source. The call rests on the fitted dose curve; in most records, active means well fitted activation curve with a large enough effect in the signal ratio in the repeat runs (not every such curve was filed as active); inconclusive means weak or mixed curves, or effect the other way; inactive means no such curve, though single readings can be large or run the other way; the % refers to the signal ratio.
measured_property: Potency

In the examples that follow, each entry is paired with its recorded Potency.
{"columns": ["molecule", "measured_property", "result"],
 "data": [
  ["Cc1cc(S(=O)(=O)O)ccc1N=Nc1c(O)ccc2ccccc12", "Potency", "inactive"],
  ["NCC1CCCC(CN)C1 (stereo not drawn)", "Potency", "inactive"],
  ["COc1ccccc1N=Nc1c(S(=O)(=O)O)cc2cc(S(=O)(=O)O)cc(NC(C)=O)c2c1O", "Potency", "inactive"],
  ["CCCCC/C(=C\\c1ccccc1)CO", "Potency", "inactive"],
  ["O=C(O)c1snc(Cl)c1Cl", "Potency", "inactive"]
]}

Input line: Provide one value: measured Potency of Cn1c(=O)c2c(ncn2CC(=O)O)n(C)c1=O
Output line: inactive

Input line: Input ON(Cc1ccccc1)Cc1ccccc1 , output reported Potency.
Output line: inactive

Input line: Specify reported Potency for the molecule shown: Cc1nc2ccccc2s1
Output line: inactive

###

experiment: qHTS assay to identify small molecule agonists of the peroxisome proliferator-activated receptor delta (PPARd) signaling pathway - cell viability counter screen (AID 743211); conditions: PPARd-bla HEK293H viability, CellTiter-Glo luminescence, 17 h; series mostly up to 62.6 µM; further: nearly all actives have a fitted effect of over 55% in size
Records with an inconclusive call do not appear. The source made the active and inactive calls. Calls come from the whole dose curve; as a rule, active = well fitted cell-killing curve with a large enough effect in the repeat runs; inconclusive = weak or mixed curves; inactive = no such curve, though single readings can be large or run the other way.
Return exactly one item of active, inactive

{"columns": ["molecule", "assigned_class"],
 "data": [
  ["COC(OC)(C(=O)c1ccccc1)c1ccccc1", "inactive"]
]}

Now let's try a different one.
Input line: Hi, do you know how CC1=CC(=O)CC(C)(C)C1(O)/C=C/C(C)=C\C(=O)O (configuration not stated) came out in this test?
Output line: inactive
